Target: T1, human APJ receptor (human, UniProt P35414 1-380)
T1 sequence (looked up): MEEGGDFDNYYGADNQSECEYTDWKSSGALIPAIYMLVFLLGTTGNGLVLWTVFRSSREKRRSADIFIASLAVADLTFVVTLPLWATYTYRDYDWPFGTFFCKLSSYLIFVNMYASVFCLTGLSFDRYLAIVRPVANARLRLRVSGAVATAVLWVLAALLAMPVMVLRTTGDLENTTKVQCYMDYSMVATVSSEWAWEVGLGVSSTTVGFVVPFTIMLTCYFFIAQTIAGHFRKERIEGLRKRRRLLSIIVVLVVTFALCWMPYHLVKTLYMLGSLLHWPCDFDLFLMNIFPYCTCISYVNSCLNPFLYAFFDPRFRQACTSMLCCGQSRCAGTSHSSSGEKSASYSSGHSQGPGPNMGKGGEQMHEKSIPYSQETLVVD
Assay: cell-based or functional assay
Starred links: 1 amine or outer side, 2 acyl side, 3 side chain; linkers in the order of their positions; H or OH if unused. Non-standard residues stand in square brackets, D forms with d. Primed or numbered codes have the meaning given here. *: point of attachment. AC4Abu = α-carboxy-4-aminobutyric acid, O=C(C(CCN[*:1])C(=O)[*:3])[*:2]; Oic = O=C(O)[C@@H]1C[C@@H]2CCCC[C@@H]2N1; Phe(4-Cl) = N[C@@H](Cc1ccc(Cl)cc1)C(=O)O; γGlu = O=C(O)[C@H](CCC(=O)[*:2])N[*:1]; NMeR = CN[C@@H](CCCNC(=N)N)C(=O)O; Tridecanoyl = CCCCCCCCCCCCC(=O)*; hArg = N=C(N)NCCCC[C@H](N)C(=O)O; αMeL = CC(C)C[C@](C)(N)C(=O)O; AC4Abu″ = not defined here; Nle = CCCC[C@H](N)C(=O)O; AEEA = NCCOCCOCC(=O)O; BLeu = β-leucine
Below is a list of entries, each paired with its recorded EC50 Human APJ Receptor (GTPγS assay) value.

binder	EC50 Human APJ Receptor (GTPγS assay), nM
Tridecanoyl-[γGlu][AEEA][AEEA][dQ]RP[hArg][BLeu]SHKG[Oic][Nle]P[Phe(4-Cl)]-OH [Apelin polypeptide SEQ ID NO: 378]	0.26
Tridecanoyl-[AC4Abu″][AEEA][AEEA]QRP[NMeR]LSH[Nle]GP[Nle]P[Phe(4-Cl)]-OH (reading uncertain) [Apelin polypeptide SEQ ID NO: 466]	0.0461
Tridecanoyl-[AC4Abu][AEEA][AEEA]QR[NMeR][αMeL]SHKG[Oic][Nle]P[Phe(4-Cl)]-OH (SMILES CCCCCCCCCCCCC(=O)NCCC(C(=O)O)C(=O)NCCOCCOCC(=O)NCCOCCOCC(=O)N[C@@H](CCC(N)=O)C(=O)N[C@@H](CCCNC(=N)N)C(=O)N(C)[C@@H](CCCNC(=N)N)C(=O)N[C@@](C)(CC(C)C)C(=O)N[C@@H](CO)C(=O)N[C@@H](Cc1c[nH]cn1)C(=O)N[C@@H](CCCCN)C(=O)NCC(=O)N1[C@H](C(=O)N[C@@H](CCCC)C(=O)N2CCC[C@H]2C(=O)N[C@@H](Cc2ccc(Cl)cc2)C(=O)O)C[C@@H]2CCCC[C@@H]21) [Apelin polypeptide SEQ ID NO: 396]	0.977
